Target: Glucocorticoid receptor (Homo sapiens, UniProt P04150)
Sequence (P04150 whole entry): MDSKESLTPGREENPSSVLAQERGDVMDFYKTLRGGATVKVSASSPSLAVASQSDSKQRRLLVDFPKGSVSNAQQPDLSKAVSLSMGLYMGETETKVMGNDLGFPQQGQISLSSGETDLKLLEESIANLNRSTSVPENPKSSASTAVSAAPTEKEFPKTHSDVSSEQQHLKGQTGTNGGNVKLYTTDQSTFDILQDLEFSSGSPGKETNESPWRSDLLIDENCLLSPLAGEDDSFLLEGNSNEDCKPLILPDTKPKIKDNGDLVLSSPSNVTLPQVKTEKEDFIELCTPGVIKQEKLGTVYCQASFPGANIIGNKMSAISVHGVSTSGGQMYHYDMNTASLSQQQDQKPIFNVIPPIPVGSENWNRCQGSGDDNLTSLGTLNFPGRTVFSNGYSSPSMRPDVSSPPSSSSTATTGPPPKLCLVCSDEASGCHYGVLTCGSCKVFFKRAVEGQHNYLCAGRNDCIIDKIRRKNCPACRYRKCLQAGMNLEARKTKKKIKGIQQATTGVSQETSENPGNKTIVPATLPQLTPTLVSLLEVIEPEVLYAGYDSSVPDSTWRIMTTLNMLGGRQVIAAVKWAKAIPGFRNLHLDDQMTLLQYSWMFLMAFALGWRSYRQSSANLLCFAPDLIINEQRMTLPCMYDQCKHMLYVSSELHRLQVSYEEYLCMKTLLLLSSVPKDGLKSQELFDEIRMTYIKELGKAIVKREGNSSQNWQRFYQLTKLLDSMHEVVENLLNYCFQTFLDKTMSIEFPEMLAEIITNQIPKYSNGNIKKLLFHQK
Assay: Compound was tested for inhibitory activity towards human glucocorticoid receptor
pIC50: −log10 of the molar value.
MET means recorded pIC50 is 8 or above; NOT MET means it is below 8.

compound	experimental target	label value
CC(C)(C)[C@H](O)[C@H]1CCCC2=Cc3c(cnn3-c3ccc(F)cc3)C[C@@]21C	Glucocorticoid receptor (Homo sapiens, UniProt P04150)	NOT MET
C[C@]12Cc3cnn(-c4ccc(F)cc4)c3C=C1CCC[C@@H]2[C@@H](O)CCC1CC1	Glucocorticoid receptor (Homo sapiens, UniProt P04150)	MET

---

# maps each entry to its IC50
Biological target: UniProt:P03372
Sequence (P03372 whole entry): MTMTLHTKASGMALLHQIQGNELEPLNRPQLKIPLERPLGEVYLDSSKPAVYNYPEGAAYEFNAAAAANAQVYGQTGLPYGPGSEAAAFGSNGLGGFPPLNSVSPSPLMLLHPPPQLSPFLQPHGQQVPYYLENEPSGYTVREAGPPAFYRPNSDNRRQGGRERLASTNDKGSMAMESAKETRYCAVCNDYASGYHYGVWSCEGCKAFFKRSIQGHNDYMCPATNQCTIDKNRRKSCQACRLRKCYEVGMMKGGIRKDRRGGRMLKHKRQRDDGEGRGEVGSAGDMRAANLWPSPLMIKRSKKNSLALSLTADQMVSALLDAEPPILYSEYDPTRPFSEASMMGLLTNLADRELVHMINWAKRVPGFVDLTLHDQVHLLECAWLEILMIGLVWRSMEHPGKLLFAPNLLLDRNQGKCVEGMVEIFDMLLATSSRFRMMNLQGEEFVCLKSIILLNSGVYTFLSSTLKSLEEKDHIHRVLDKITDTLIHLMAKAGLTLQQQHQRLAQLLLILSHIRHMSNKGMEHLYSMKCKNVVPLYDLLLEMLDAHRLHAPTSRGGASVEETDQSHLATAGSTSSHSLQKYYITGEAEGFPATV

compound	IC50
C=CCC[C@H](O)[C@H]1CCCC2=Cc3c(cnn3-c3ccc(F)cc3)C[C@@]21C	> 1 µM
C[C@]12Cc3cnn(-c4ccc(F)cc4)c3C=C1CCC[C@@H]2[C@@H](O)c1ccc(F)cc1	> 5 µM
C[C@]12Cc3cnn(-c4ccc(F)cc4)c3C=C1CCC[C@@H]2[C@@H](O)c1ccccc1	> 1 µM
COc1cc([C@H](O)[C@H]2CCCC3=Cc4c(cnn4-c4ccc(F)cc4)C[C@@]32C)cc(F)c1F	> 1 µM
C[C@]12Cc3cnn(-c4ccc(F)cc4)c3C=C1CCC[C@@H]2[C@](C)(O)c1ccc(F)cc1	> 1 µM
